Could you please report measured %Inh for the items listed next?
Tested on: RSK2(Kin.Dom.1-N-terminal)
Construct: gene RPS6KA3
test parameters: concentration: 1 μM, replicates: in singlicate; n = 1;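 note: KINOMEscan kinase panel screen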
Numbers only, in %.

>>> print(df.to_string())
                                smiles_repr           system_under_test  unit_info  readout_number
0       Nc1nc(-c2nccs2)c(-c2ccnc3ccccc23)s1  RSK2(Kin.Dom.1-N-terminal)          %               0
1  COc1ccc2nc(-c3cccc(C)n3)nc(Nc3ccncc3)c2c1  RSK2(Kin.Dom.1-N-terminal)          %               0
2  CS(=O)(=O)c1ccc(-c2nc3n(c2-c2ccncc2)CCC3)cc1  RSK2(Kin.Dom.1-N-terminal)          %               4
3  COc1ccc(Nc2nccc(NCCNC(=O)Nc3ccccc3F)n2)cc1  RSK2(Kin.Dom.1-N-terminal)          %               1

Indicate its recorded %Inh; the compound in question is Nc1ncnc2[nH]c(-c3ccccc3)nc12
15

###

System: MEK3
Construct: gene MAP2K3
test parameters: concentration: 1 μM, replicates: in singlicate; n = 1
measured endpoint: %Inh (%)
Answers are plain numbers, in %.

// solved cases for %Inh follow
>>> print(df.to_string())
                                   compound  readout_number
0  CN(C)CCN(C)C(=O)c1cc(-c2ccncc2)c(-c2ccc(Cl)c(O)c2)o1.Cl.Cl               0
1  COc1ccccc1CNC(=O)c1cc(C(=O)c2ccccc2C)c[nH]1               0
2  CC(C)(C)c1ccc(C(=O)Nc2cn3cc(Cl)ccc3n2)cc1               0
3  COc1cccc(-c2cc(-c3c[nH]nc3-c3ccccn3)ccn2)c1              67
4                Cc1ccccc1-n1cnc2c(N)ncnc21               0
5  Cc1cc(NCC(c2ccccc2)c2ccccc2)nc(NCc2ccc(C(F)(F)F)cc2)n1               0

I would be grateful if you could provide %Inh for each of the following entries.
1. COc1cccc(NC(=O)NC2CCN(c3ccnc(Nc4ccc(F)cc4)n3)C2)c1 (stereo not shown)
2. C[C@@H]1CCCCN1c1cc(-c2ccc3c(N)n[nH]c3c2)nc(N)n1
3. Cc1cc(N2Cc3ccccc3C2)nc(Nc2ccc(S(=O)(=O)N3CCOCC3)cc2)n1.Cl
4. CC(C)(C)c1ccc(C(=O)Nc2cn3cc(-c4cccnc4)ccc3n2)cc1
5. CC(=O)Nc1nc2cnc(Nc3cc(NC(=O)c4cccc(CCC#N)c4)ccc3C)nc2s1

0
0
0
13
3

I would be grateful if you could provide %Inh for each of the following entries.
1. O=C(Nc1n[nH]c2nc(-c3nccs3)c(Br)cc12)C1CCCC1
2. Nc1ncnc2[nH]c(-c3ccccc3)nc12
3. Cn1ccc2ncnc(Oc3ccc(Nc4nc5ccccc5[nH]4)cc3)c21
4. Cc1cccc(-c2nc(Nc3ccncc3)c3ccccc3n2)n1
5. Cc1cccc(-c2nc(C)cc(Nc3ccncc3)n2)n1
6. Nc1nc(-c2nccs2)c(-c2ccnc3ccccc23)s1
7. COc1ccc(Nc2nccc(NCCNC(=O)Nc3ccccc3F)n2)cc1

1: 0; 2: 1; 3: 0; 4: 0; 5: 0; 6: 0; 7: 0

I would be grateful if you could provide %Inh for each of the following entries.
1. CSc1nn2c(=O)cc(N3CCOCC3)nc2n1Cc1cccc(C(F)(F)F)c1C
2. Cc1cccc(-c2nc(-c3ccc(S(C)(=O)=O)cc3)sc2-c2ccnc(NCCc3ccccc3)c2)c1
3. CCn1c(-c2cccnc2O)nc2cnccc21
4. Cc1csc(-c2nc(Nc3ccncc3)c3ccccc3n2)n1
5. CS(=O)(=O)c1ccc(-c2c(-c3ncn[nH]3)sc(N3CCOCC3)c2C#N)cc1
6. CS(=O)(=O)c1ccc(-c2nc3n(c2-c2ccncc2)CCC3)cc1
7. Cl.Oc1ccc(-c2nc(-c3ccccc3)[nH]c2-c2ccncc2)cc1
8. CC1=C(C(=O)Nc2cc3cn[nH]c3cc2F)C(c2ccc(C(F)(F)F)cc2)CC(=O)N1 (stereo not shown)

1. 0
2. 0
3. 14
4. 38
5. 0
6. 0
7. 0
8. 23

I would be grateful if you could provide %Inh for each of the following entries.
1. COc1cc(Nc2nccc(N3CCC(NC(=O)Nc4cc(C)ccc4C)C3)n2)cc(OC)c1OC (stereo not shown)
2. Cc1c(Cn2ccn3c(=O)cc(N4CCOCC4)nc23)cccc1C(F)(F)F
3. NC(=O)c1nnc2ccccc2c1N
4. COc1ccc2nc(-c3cccc(C)n3)nc(Nc3ccncc3)c2c1
5. Cl.NC(=O)c1cccc(Nc2nccc(Nc3ccc(Oc4cccc(Cl)c4)c(Cl)c3)n2)c1

[0, 17, 46, 0, 0]

###

Test system: RPS6KA5(Kin.Dom.2-C-terminal)
test parameters: concentration: 1 μM, replicates: in singlicate; n = 1
measured endpoint: %Inh

// solved cases for %Inh follow
In [3]: df
Out[3]:
                                   compound  result
0  Cc1c(Cn2ccn3c(=O)cc(N4CCOCC4)nc23)cccc1C(F)(F)F     11%
1  COc1cc(Nc2nccc(N3CCC(NC(=O)Nc4cc(C)ccc4C)C3)n2)cc(OC)c1OC (centres unmarked)      2%

I would be grateful if you could provide %Inh for each of the following entries.
1. Fc1cc(Cl)ccc1Nc1ccnc2cc(-c3ccc(CN4CCCCC4)o3)ccc12
2. CC(C)(C)c1ccc(C(=O)Nc2cn3cc(-c4cccnc4)ccc3n2)cc1
3. COc1ccc(Nc2nccc(NCCNC(=O)Nc3ccccc3F)n2)cc1

["8%", "6%", "27%"]

###

System: LTK
test parameters: concentration: 1 μM, replicates: in singlicate; n = 1
Could you please report measured %Inh for the items listed next?
Don't forget the unit after the number, please.

>>> print(df.to_string())
                                   compound  result
0  COc1cccc(-c2cc(-c3c[nH]nc3-c3ccccn3)ccn2)c1      0%

I would be grateful if you could provide %Inh for each of the following entries.
1. Cl.NC(=O)c1cccc(Nc2nccc(Nc3ccc(Oc4cccc(Cl)c4)c(Cl)c3)n2)c1
2. O=C(Nc1ccc2c(c1)OCO2)NC1CCN(c2ccnc(Nc3ccc(F)cc3)n2)C1 (centres unmarked)
3. Cn1ccc2ncnc(Oc3ccc(NC(=O)Nc4ccccc4)cc3)c21
4. CN(C)CCN(C)C(=O)c1cc(-c2ccncc2)c(-c2ccc(Cl)c(O)c2)o1.Cl.Cl

1. 0%
2. 0%
3. 0%
4. 11%

###

Could you please report measured %Inh for the items listed next?
System: NIM1
Construct: gene MGC42105
test parameters: concentration: 1 μM, replicates: in singlicate; n = 1
Numbers only, in %.

// solved cases for %Inh follow
                                   compound  readout_number
0  O=C1NC(=O)C(N2CCc3ccccc32)=C1c1ccccc1Cl [SB-373598]              16
1  Clc1cc(Cl)cc(Nc2ccnc(Nc3cc(Cl)cc(Cl)c3)n2)c1 [GSK175726]               0
2  COc1ccccc1CNC(=O)c1cc(C(=O)c2ccccc2C)c[nH]1 [GSK364507]              16
3  COc1cccc(-c2cc(-c3c[nH]nc3-c3ccccn3)ccn2)c1 [GW680338]              21
4  Cc1ccc(C(=O)Nc2ccc(Nc3ccnc4cc(-c5ccccn5)ccc34)cc2O)cc1.Cl [GW440146]              15
5     Nc1ncnc2[nH]c(-c3ccccc3)nc12 [AH5015]              21
6  COc1cc2nccc(Nc3ccc(NC(=O)c4ccc(C)cc4)c(O)c3)c2cc1OC.Cl [GW440132]               7
7  COc1ccc(C2=C(Nc3cccc(C(=O)O)c3)C(=O)NC2=O)cc1 [SB-390765]              45

I would be grateful if you could provide %Inh for each of the following entries.
1. CS(=O)(=O)c1ccc(-c2nc3n(c2-c2ccncc2)CCC3)cc1 [SKF-105942]
2. NC(=O)c1nnc2ccccc2c1N

[17, 14]

###

System: MRCKA
test parameters: concentration: 1 μM, replicates: in singlicate; n = 1
%Inh vs 1%: at or above is yes, below is no.

# count of solved cases: 5
>>> df
                                   compound  class
0  O=C(O)COc1ncnc2cc(-c3ccc4[nH]ncc4c3)sc12     no
1  Cc1cccc(-c2nc(Nc3ccc4[nH]ncc4c3)c3ccccc3n2)n1     no
2  Cc1c(Cn2ccn3c(=O)cc(N4CCOCC4)nc23)cccc1C(F)(F)F     no
3  COc1ccccc1CNC(=O)c1cc(C(=O)c2ccccc2C)c[nH]1    yes
4  COc1ccc(C2=C(Nc3cccc(C(=O)O)c3)C(=O)NC2=O)cc1     no

Does the reported %Inh for Cn1ccc2ncnc(Oc3ccc(NC(=O)Nc4ccccc4)cc3)c21 fall at or above the 1% mark?
no

Does the reported %Inh for Cc1ccc(NC(=O)Nc2cccc(Cl)c2)cc1-c1ccc(C(=O)Nc2ccncc2)cc1 fall at or above the 1% mark?
yes

Does the reported %Inh for COc1cc2ncn(-c3cc(OCC4CCCO4)c(C(N)=O)s3)c2cc1OC (stereo not drawn) fall at or above the 1% mark?
yes
